Kindly state log10 of DC50 for each of the entries shown.
tested on: BRAF^V600E protein (Homo sapiens, UniProt P15056, V600E)
Sequence (P15056 whole entry V600E): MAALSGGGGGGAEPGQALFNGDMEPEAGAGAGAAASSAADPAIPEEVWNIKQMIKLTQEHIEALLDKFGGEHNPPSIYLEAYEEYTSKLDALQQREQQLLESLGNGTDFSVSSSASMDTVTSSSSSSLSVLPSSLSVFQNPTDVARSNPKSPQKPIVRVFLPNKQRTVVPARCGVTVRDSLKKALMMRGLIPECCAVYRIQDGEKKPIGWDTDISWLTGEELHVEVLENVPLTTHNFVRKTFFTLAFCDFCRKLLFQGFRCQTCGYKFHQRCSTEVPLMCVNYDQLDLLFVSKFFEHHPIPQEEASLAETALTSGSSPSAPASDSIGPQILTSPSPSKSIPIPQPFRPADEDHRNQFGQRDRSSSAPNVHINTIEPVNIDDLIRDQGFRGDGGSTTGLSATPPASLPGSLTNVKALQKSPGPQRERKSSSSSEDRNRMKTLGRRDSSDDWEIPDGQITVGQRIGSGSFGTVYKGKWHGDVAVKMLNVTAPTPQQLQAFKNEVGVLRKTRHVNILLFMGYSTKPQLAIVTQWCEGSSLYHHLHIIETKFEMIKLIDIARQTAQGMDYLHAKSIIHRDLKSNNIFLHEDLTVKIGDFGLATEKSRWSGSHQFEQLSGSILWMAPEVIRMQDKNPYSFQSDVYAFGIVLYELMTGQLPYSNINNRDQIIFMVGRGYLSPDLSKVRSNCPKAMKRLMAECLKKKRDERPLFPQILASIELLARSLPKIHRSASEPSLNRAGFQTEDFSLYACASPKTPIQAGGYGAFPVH
assay summary: HiBiT cellular BRAF V600E degradation assay
Assay type: cell-based
setup conditions: A375.10 cells (HiBiT tag knocked in at N-terminal of BRAF V600E), 24 h incubation; concentration at which 50% of total cellular BRAF V600E is degraded
Each number you see is log10 of DC50, and the unit inside the log is nM.

Q: # log10 of DC50 lookup, item CCN(C)S(=O)(=O)Nc1ccc(F)c(C(=O)c2c[nH]c3ncc(-c4cnc(N5CCN(C(=O)CN6CCC(n7cc(NC8CCC(=O)NC8=O)cn7)CC6)CC5)nc4)cc23)c1F (stereo not shown)
Ans: 1.78

Q: So what's the measured log10 of DC50 for this one? CCN(C)S(=O)(=O)Nc1ccc(F)c(C(=O)c2c[nH]c3ncc(-c4cnc(N5CCN(C(=O)CC6(O)CCN(c7ccc(NC8CCC(=O)NC8=O)cn7)CC6)CC5)nc4)cc23)c1F (stereo not shown)
Ans: 1.00

Q: Fill in the blank: the reported log10 of DC50 of CCN(C)S(=O)(=O)Nc1ccc(F)c(C(=O)c2c[nH]c3ncc(-c4ccc(OC5CCN(C(=O)CN6CCC(c7ccc(NC8CCC(=O)NC8=O)cc7)CC6)CC5)cc4)cc23)c1F (stereo not shown) is ____.
Ans: 1.18

Q: Recorded log10 of DC50 of CCN(C)S(=O)(=O)Nc1ccc(F)c(C(=O)c2c[nH]c3ncc(-c4cnc(N5CCN(C(=O)CN6CCC(c7ccc(OC8CCC(=O)NC8=O)cc7)CC6)CC5)nc4)cc23)c1F (stereo not shown) , please.
Ans: 1.18

Q: Endpoint output: log10 of DC50 of O=C1CCC(Oc2ccc(C3CCN(CC(=O)N4CC5(C4)CN(c4ncc(-c6cnc7[nH]cc(C(=O)c8c(F)ccc(NS(=O)(=O)N9CCCC9)c8F)c7c6)cn4)C5)CC3)cc2)C(=O)N1 (stereo not shown) . Value?
Ans: 1.67

Q: // query log10 of DC50 value for entry CCN(C)S(=O)(=O)Nc1ccc(F)c(C(=O)c2c[nH]c3ncc(-c4ccc(CN5CCN(C6CCN(C(=O)CN7CCC(c8ccc(NC9CCC(=O)NC9=O)cc8)CC7)CC6)CC5)cc4)cc23)c1F (stereo not shown)
Ans: 1.96

Q: Please report the recorded log10 of DC50 for CCN(C)S(=O)(=O)Nc1ccc(F)c(C(=O)c2c[nH]c3ncc(-c4cnc(N5CC6(C5)CN(C5CCN(c7ccc(NC8CCC(=O)NC8=O)cc7F)CC5)C6)nc4)cc23)c1F (stereo not shown) .
Ans: 0.36

Q: What value of measured log10 of DC50 is listed for CCN(C)S(=O)(=O)Nc1ccc(F)c(C(=O)c2c[nH]c3ncc(-c4ccc(N5CCN(C(=O)CCCN6CCC(c7ccc(OC8CCC(=O)NC8=O)cc7)CC6)CC5)cc4)cc23)c1F (stereo not shown) ?
Ans: 1.38

Q: Need log10 of DC50, item CCN(C)S(=O)(=O)Nc1ccc(F)c(C(=O)c2c[nH]c3ncc(-c4ccc(N5CCN(C(=O)CN6CCC(c7ccc(N8CCC(=O)NC8=O)cc7)CC6)CC5)nc4)cc23)c1F
Ans: 1.00

Q: So what's the measured log10 of DC50 for this one? CCN(C)S(=O)(=O)Nc1ccc(F)c(C(=O)c2c[nH]c3ncc(-c4ccc(N5CCC(NCC(=O)N6CCC(c7ccc(OC8CCC(=O)NC8=O)cc7)CC6)CC5)nc4)cc23)c1F (stereo not shown)
Ans: 1.64
